Test system: RARg:RXRa (NR concentration 270 nM, RXRa partner concentration 90 nM)
Experiment: PBM binding z-score (relative to random genomic background probes); higher = stronger binding; sequences stand for … in GC…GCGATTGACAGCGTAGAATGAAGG
Use 4 as the dividing line for PBM binding z-score, with the line itself on the T side and lower values as F.

# chain.sequence, answer.label
data = [
    ("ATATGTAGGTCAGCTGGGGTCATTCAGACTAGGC", "T"),
    ("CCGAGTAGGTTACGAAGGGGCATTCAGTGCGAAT", "F"),
    ("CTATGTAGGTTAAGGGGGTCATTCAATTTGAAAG", "T"),
    ("CTATGTAGGTTAAGGGGGTCTTTCAGTTTGAAAG", "F"),
    ("TTTAGTTGGTCAAAGGTCACACACTCGAAATGCG", "T"),
    ("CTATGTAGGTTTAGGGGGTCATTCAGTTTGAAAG", "T"),
    ("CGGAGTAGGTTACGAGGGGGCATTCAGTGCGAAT", "F"),
    ("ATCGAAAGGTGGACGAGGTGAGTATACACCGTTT", "F"),
    ("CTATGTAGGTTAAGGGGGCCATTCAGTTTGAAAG", "F"),
    ("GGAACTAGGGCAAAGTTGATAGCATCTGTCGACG", "F"),
    ("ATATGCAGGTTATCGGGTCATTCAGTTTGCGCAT", "F"),
    ("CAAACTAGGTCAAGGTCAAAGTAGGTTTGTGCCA", "T"),
    ("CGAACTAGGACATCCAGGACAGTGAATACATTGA", "F"),
    ("GCTGCTAGGTCAGGTTGGTCAGCTAACGGGTACG", "F"),
    ("CGTCCAAGGTCAGAGAGGTCATTGAATGCCGAGT", "T"),
    ("AGAATGGGGTTATTAAGATCAGGGAATTGCGGTC", "F"),
    ("CCTAGTTGGTCAAGGTCTCACACGCTATAGGTAC", "F"),
    ("ATCGAACGGTCGACGAGGTGAGTATACACCGTTT", "F"),
    ("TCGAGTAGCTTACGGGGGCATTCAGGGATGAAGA", "F"),
    ("CGTCAAAGTTCATGGTAACGTAACAGAAAGCAGC", "T"),
    ("CGTCCAAGGGCAATGCTAGGTCAGTGAAAGCATT", "F"),
    ("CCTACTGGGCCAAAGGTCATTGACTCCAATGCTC", "T"),
    ("CGTCAAAGTTCTAGGTAACGTAACAGAAAGCAGC", "F"),
    ("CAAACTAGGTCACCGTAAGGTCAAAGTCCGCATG", "T"),
]

Ref: the supplement of paper PMC6555819
